Biological target: T1, Activin A (Homo sapiens (Human), UniProt P08476 311-426)
T1 sequence: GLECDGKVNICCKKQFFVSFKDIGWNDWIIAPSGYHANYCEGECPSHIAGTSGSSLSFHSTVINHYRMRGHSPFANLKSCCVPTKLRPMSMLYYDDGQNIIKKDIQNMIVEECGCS
Experiment: Biacore SPR grade, COS transient conditioned media, 20 nM activin A
MEASUREMENT LABEL: normalized SPR signal

Reference set (5 entries):
binder="ActRIIB-IgG1 Fc R40G, linker GGGGS (Fc fusion, Tested from conditioned media) SGRGEAETRECIYYNANWELEGTNQSGLERCEGEQDKRLHCYASWRNSSGTIELVKKGCWLDDFNCYDRQECVATEENPQVYFCCCEGNFCNERFTHLPEAGGPEVTYEPPPTAPTGGGGSAPELLGGPSVFLFPPKPKDILMISRTPEVTCVVVDVSHEDPEVKFNWYVGGVEVHNAKTKPREEQYNSTYRVVSVLTVLHQDWLNGKEYKCKVSNKALPAPIEKTISKAKGQPREPQVYTLPPSRDELTKNQVSLTCLVKGFYPSDIAVEWESNGQPENNYKTTPPVLDSDGSFFLYSKLTVDKSRWQQGNVFSCSVMHEALHNHYTQKSLSLSPGK" meas_value="20 to 40 ru"
binder="ActRIIB-IgG1 Fc E28L, linker GGGGS (Fc fusion, Tested from conditioned media) SGRGEAETRLCIYYNANWELERTNQSGLERCEGEQDKRLHCYASWRNSSGTIELVKKGCWLDDFNCYDRQECVATEENPQVYFCCCEGNFCNERFTHLPEAGGPEVTYEPPPTAPTGGGGSAPELLGGPSVFLFPPKPKDILMISRTPEVTCVVVDVSHEDPEVKFNWYVGGVEVHNAKTKPREEQYNSTYRVVSVLTVLHQDWLNGKEYKCKVSNKALPAPIEKTISKAKGQPREPQVYTLPPSRDELTKNQVSLTCLVKGFYPSDIAVEWESNGQPENNYKTTPPVLDSDGSFFLYSKLTVDKSRWQQGNVFSCSVMHEALHNHYTQKSLSLSPGK" meas_value="5 to 10 ru"
binder="ActRIIB-IgG1 Fc E28K, linker GGGGS (Fc fusion, Tested from conditioned media) SGRGEAETRKCIYYNANWELERTNQSGLERCEGEQDKRLHCYASWRNSSGTIELVKKGCWLDDFNCYDRQECVATEENPQVYFCCCEGNFCNERFTHLPEAGGPEVTYEPPPTAPTGGGGSAPELLGGPSVFLFPPKPKDILMISRTPEVTCVVVDVSHEDPEVKFNWYVGGVEVHNAKTKPREEQYNSTYRVVSVLTVLHQDWLNGKEYKCKVSNKALPAPIEKTISKAKGQPREPQVYTLPPSRDELTKNQVSLTCLVKGFYPSDIAVEWESNGQPENNYKTTPPVLDSDGSFFLYSKLTVDKSRWQQGNVFSCSVMHEALHNHYTQKSLSLSPGK" meas_value="5 to 10 ru"
binder="ActRIIB-IgG1 Fc R40N, linker GGGGS (Fc fusion, Tested from conditioned media) SGRGEAETRECIYYNANWELENTNQSGLERCEGEQDKRLHCYASWRNSSGTIELVKKGCWLDDFNCYDRQECVATEENPQVYFCCCEGNFCNERFTHLPEAGGPEVTYEPPPTAPTGGGGSAPELLGGPSVFLFPPKPKDILMISRTPEVTCVVVDVSHEDPEVKFNWYVGGVEVHNAKTKPREEQYNSTYRVVSVLTVLHQDWLNGKEYKCKVSNKALPAPIEKTISKAKGQPREPQVYTLPPSRDELTKNQVSLTCLVKGFYPSDIAVEWESNGQPENNYKTTPPVLDSDGSFFLYSKLTVDKSRWQQGNVFSCSVMHEALHNHYTQKSLSLSPGK" meas_value="10 to 20 ru"
binder="ActRIIB-IgG1 Fc E28Q, linker GGGGS (Fc fusion, Tested from conditioned media) SGRGEAETRQCIYYNANWELERTNQSGLERCEGEQDKRLHCYASWRNSSGTIELVKKGCWLDDFNCYDRQECVATEENPQVYFCCCEGNFCNERFTHLPEAGGPEVTYEPPPTAPTGGGGSAPELLGGPSVFLFPPKPKDILMISRTPEVTCVVVDVSHEDPEVKFNWYVGGVEVHNAKTKPREEQYNSTYRVVSVLTVLHQDWLNGKEYKCKVSNKALPAPIEKTISKAKGQPREPQVYTLPPSRDELTKNQVSLTCLVKGFYPSDIAVEWESNGQPENNYKTTPPVLDSDGSFFLYSKLTVDKSRWQQGNVFSCSVMHEALHNHYTQKSLSLSPGK" meas_value="5 to 10 ru"

Sample ActRIIB-IgG1 Fc R40H, linker GGGGS (Fc fusion, Tested from conditioned media) SGRGEAETRECIYYNANWELEHTNQSGLERCEGEQDKRLHCYASWRNSSGTIELVKKGCWLDDFNCYDRQECVATEENPQVYFCCCEGNFCNERFTHLPEAGGPEVTYEPPPTAPTGGGGSAPELLGGPSVFLFPPKPKDILMISRTPEVTCVVVDVSHEDPEVKFNWYVGGVEVHNAKTKPREEQYNSTYRVVSVLTVLHQDWLNGKEYKCKVSNKALPAPIEKTISKAKGQPREPQVYTLPPSRDELTKNQVSLTCLVKGFYPSDIAVEWESNGQPENNYKTTPPVLDSDGSFFLYSKLTVDKSRWQQGNVFSCSVMHEALHNHYTQKSLSLSPGK — what was its normalized SPR signal?
10 to 20 ru

Sample ActRIIB-IgG1 Fc E28I, linker GGGGS (Fc fusion, Tested from conditioned media) SGRGEAETRICIYYNANWELERTNQSGLERCEGEQDKRLHCYASWRNSSGTIELVKKGCWLDDFNCYDRQECVATEENPQVYFCCCEGNFCNERFTHLPEAGGPEVTYEPPPTAPTGGGGSAPELLGGPSVFLFPPKPKDILMISRTPEVTCVVVDVSHEDPEVKFNWYVGGVEVHNAKTKPREEQYNSTYRVVSVLTVLHQDWLNGKEYKCKVSNKALPAPIEKTISKAKGQPREPQVYTLPPSRDELTKNQVSLTCLVKGFYPSDIAVEWESNGQPENNYKTTPPVLDSDGSFFLYSKLTVDKSRWQQGNVFSCSVMHEALHNHYTQKSLSLSPGK — what was its normalized SPR signal?
10 to 20 ru

Sample ActRIIB-IgG1 Fc E28M, linker GGGGS (Fc fusion, Tested from conditioned media) SGRGEAETRMCIYYNANWELERTNQSGLERCEGEQDKRLHCYASWRNSSGTIELVKKGCWLDDFNCYDRQECVATEENPQVYFCCCEGNFCNERFTHLPEAGGPEVTYEPPPTAPTGGGGSAPELLGGPSVFLFPPKPKDILMISRTPEVTCVVVDVSHEDPEVKFNWYVGGVEVHNAKTKPREEQYNSTYRVVSVLTVLHQDWLNGKEYKCKVSNKALPAPIEKTISKAKGQPREPQVYTLPPSRDELTKNQVSLTCLVKGFYPSDIAVEWESNGQPENNYKTTPPVLDSDGSFFLYSKLTVDKSRWQQGNVFSCSVMHEALHNHYTQKSLSLSPGK — what was its normalized SPR signal?
10 to 20 ru

Every entry's value here was drawn from patent US20130288983A1.
